Source listed as patent US9745325B2.

Target system: CDC2L6/CycC (CDK19) (Homo sapiens)
Method summary: CDK19 inhibitory activity (Kinase Tracer-236 / Eu-anti-GST fluorescence assay)
Experimental parameters: control compound, for reference; read-out: CDK19 inhibition IC50
Measured property: IC50
Please answer using a numeric value trailed by its unit.

Challenge: I'd like to know its IC50. The compound in question is Oc1ccc(-c2n[nH]cc2-c2ccc3c(c2)OCCO3)c(O)c1 [control compound, reference compound]
Response given: 0.13 µM

====

Target system: CDK8/CycC (Homo sapiens, UniProt P49336)
Construct: purchased Carna Biosciences
Sequence (P49336 whole entry): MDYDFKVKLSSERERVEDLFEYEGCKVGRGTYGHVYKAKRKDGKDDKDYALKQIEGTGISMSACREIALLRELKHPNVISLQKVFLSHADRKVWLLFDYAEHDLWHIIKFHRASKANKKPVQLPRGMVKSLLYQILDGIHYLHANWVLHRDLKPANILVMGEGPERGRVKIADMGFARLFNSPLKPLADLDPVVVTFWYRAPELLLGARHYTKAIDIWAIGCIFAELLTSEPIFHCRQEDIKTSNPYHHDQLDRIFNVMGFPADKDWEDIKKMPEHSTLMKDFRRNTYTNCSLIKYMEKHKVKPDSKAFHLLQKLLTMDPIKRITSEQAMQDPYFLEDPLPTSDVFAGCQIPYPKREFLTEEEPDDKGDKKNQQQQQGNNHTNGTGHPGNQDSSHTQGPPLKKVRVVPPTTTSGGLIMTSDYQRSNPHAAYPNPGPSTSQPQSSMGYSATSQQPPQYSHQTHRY
Sequence (P24863 whole entry partner): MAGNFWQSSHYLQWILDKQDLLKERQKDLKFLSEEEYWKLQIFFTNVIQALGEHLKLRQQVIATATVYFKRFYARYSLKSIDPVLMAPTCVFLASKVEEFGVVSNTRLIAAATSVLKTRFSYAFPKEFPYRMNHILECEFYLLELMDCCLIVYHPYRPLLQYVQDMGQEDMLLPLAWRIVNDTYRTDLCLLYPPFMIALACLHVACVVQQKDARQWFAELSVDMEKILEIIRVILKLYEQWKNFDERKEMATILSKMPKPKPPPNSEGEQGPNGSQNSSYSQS
Method summary: CDK8 inhibitory activity (Kinase Tracer-236 / Eu-anti-GST fluorescence assay)
Type: binding
Design: concentration or dose not given beside the values
Experimental parameters: test compound concentration given as '1 1.1.1\4' [sic]
Listing: Percent inhibition of CDK8 activity (%) of selected compounds

Challenge: I'd like to know its Percent inhibition of CDK8 activity (%). The compound in question is COC1CN(C(=O)c2ccc(Oc3sc(C(N)=O)c4c3-c3sncc3CC4)cn2)C1 [Example 111]
Response given: 107%

====

Target system: CDK8/CycC (Homo sapiens, UniProt P49336)
Construct: purchased Carna Biosciences
Method summary: CDK8 inhibitory activity (Kinase Tracer-236 / Eu-anti-GST fluorescence assay)
Type: binding
Parameters: concentration or dose not given beside the values
Experimental parameters: test compound concentration given as '1 1.1.1\4' [sic]
Measured property: Percent inhibition of CDK8 activity (%)
Entry rule: numbers only, all in %.

Consider the reported Percent inhibition of CDK8 activity (%) for these molecules:
CCOC(=O)c1ccc(Oc2sc(C(N)=O)c3c2-c2sncc2CC3)cn1 [Example 15] :: 100
COCC(=O)N(C)c1ccc(Oc2sc(C(N)=O)c3c2-c2sncc2CC3)cn1 [Example 125] :: 102
Cn1cc(Oc2sc(C(N)=O)c3c2-c2sncc2CC3)cn1 [Example 96] :: 110
COCC(=O)Nc1ccc(Oc2sc(C(N)=O)c3c2-c2sncc2CC3)cn1 [Example 97] :: 103
Cc1nc(C(=O)N(C)C)ccc1Oc1sc(C(N)=O)c2c1-c1sncc1CC2 [Example 116] :: 103
NC(=O)c1sc(Oc2cccnc2)c2c1CCc1cnsc1-2 [Example 132] :: 102
N#Cc1ccc(Oc2sc(C(N)=O)c3c2-c2sncc2CC3)cc1 [Example 2] :: 100
NC(=O)c1sc(Oc2ccc(C(=O)O)nc2)c2c1CCc1cnsc1-2 [Example 12] :: 100

Turning now to a further record.
Challenge: I'd like to know its Percent inhibition of CDK8 activity (%). The molecule in question is NC(=O)c1sc(Oc2ccc(C(=O)NC3CC3)nc2)c2c1CCc1cnsc1-2 [Example 118]
Response given: 104

====

Target system: CDC2L6/CycC (CDK19) (Homo sapiens, UniProt Q9BWU1)
Construct: purchased Carna Biosciences Inc
Sequence (Q9BWU1 whole entry, one chain of several): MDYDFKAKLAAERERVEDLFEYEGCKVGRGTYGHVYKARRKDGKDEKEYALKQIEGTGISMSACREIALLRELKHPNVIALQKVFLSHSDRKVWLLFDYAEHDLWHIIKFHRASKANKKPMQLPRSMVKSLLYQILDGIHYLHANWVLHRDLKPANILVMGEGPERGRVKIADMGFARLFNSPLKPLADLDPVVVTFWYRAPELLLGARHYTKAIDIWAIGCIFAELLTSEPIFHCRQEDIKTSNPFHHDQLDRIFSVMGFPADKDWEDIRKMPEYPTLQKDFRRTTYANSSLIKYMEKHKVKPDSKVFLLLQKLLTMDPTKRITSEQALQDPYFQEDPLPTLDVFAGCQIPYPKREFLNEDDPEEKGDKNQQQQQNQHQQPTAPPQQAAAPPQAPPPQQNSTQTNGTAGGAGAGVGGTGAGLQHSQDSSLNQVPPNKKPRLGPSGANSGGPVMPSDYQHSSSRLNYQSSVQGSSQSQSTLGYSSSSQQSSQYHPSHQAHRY
Method summary: CDK19 inhibitory activity (Kinase Tracer-236 / Eu-anti-GST fluorescence assay)
Format: binding
Design: concentration or dose not given beside the values
Experimental parameters: test compound concentration given as '1 1.1.1\4' [sic]
Measured property: Percent inhibition of CDK19 activity (%)
Entry rule: numbers only, all in %.

Consider the reported Percent inhibition of CDK19 activity (%) for these molecules:
CN(CC(C)(C)O)C(=O)c1ccc(Oc2sc(C(N)=O)c3c2-c2sncc2CC3)cn1 :: 95
CCC(=O)Nc1ccc(Oc2sc(C(N)=O)c3c2-c2sncc2CC3)cn1 :: 99
NC(=O)c1sc(Oc2ccc(S(F)(F)(F)(F)F)cc2)c2c1CCc1cnsc1-2 :: 99
Cc1ncccc1Oc1sc(C(N)=O)c2c1-c1snnc1CC2 :: 93

Turning now to a further record.
Challenge: I'd like to know its Percent inhibition of CDK19 activity (%). The molecule in question is NC(=O)c1ccc(Oc2sc(C(N)=O)c3c2-c2sncc2CC3)cn1
Response given: 98

====

Target system: CDK8/CycC (Homo sapiens, UniProt P49336)
Construct: purchased Carna Biosciences
Method summary: CDK8 inhibitory activity (Kinase Tracer-236 / Eu-anti-GST fluorescence assay)
Type: binding
Parameters: concentration or dose not given beside the values
Experimental parameters: test compound concentration given as '1 1.1.1\4' [sic]
Measured property: Percent inhibition of CDK8 activity (%)
Entry rule: numbers only, all in %.

Consider the reported Percent inhibition of CDK8 activity (%) for these compounds:
N#Cc1ccc(Oc2sc(C(N)=O)c3c2-c2sncc2CC3)cn1 :: 96
Cc1ncccc1Oc1sc(C#N)c2c1-c1sncc1CC2 :: 69
CCOCCNC(=O)c1ccc(Oc2sc(C(N)=O)c3c2-c2sncc2CC3)cn1 :: 110

Challenge: I'd like to know its Percent inhibition of CDK8 activity (%). The compound in question is NC(=O)c1sc(Oc2ccc(=O)[nH]c2)c2c1CCc1cnsc1-2
Response given: 101

Challenge: I'd like to know its Percent inhibition of CDK8 activity (%). The compound in question is NC(=O)c1sc(Oc2ccc(NC(=O)C3(O)CC3)nc2)c2c1CCc1cnsc1-2
Response given: 106

====

Target system: CDK8/CycC (Homo sapiens)
Construct: purchased Carna Biosciences
Method summary: CDK8 inhibitory activity (Kinase Tracer-236 / Eu-anti-GST fluorescence assay)
Assay type: binding
Parameters: concentration or dose not given beside the values
Experimental parameters: test compound concentration given as '1 1.1.1\4' [sic]
Measured property: Percent inhibition of CDK8 activity (%)
Entry rule: numbers only, all in %.

Cc1nn(C)cc1Oc1sc(C(N)=O)c2c1-c1sncc1CC2 :: 105
NC(=O)c1sc(Oc2ccc(C(=O)N3CCCCC3)nc2)c2c1CCc1cnsc1-2 :: 97
Cc1nc(C(=O)NCC(C)(C)O)ccc1Oc1sc(C(N)=O)c2c1-c1sncc1CC2 :: 102
CS(=O)(=O)c1cc(Oc2sc(C(N)=O)c3c2-c2sncc2CC3)ccc1C#N :: 89
CN(CC(C)(C)O)C(=O)c1ccc(Oc2sc(C(N)=O)c3c2-c2sncc2CC3)cn1 :: 100
Cc1ncccc1Oc1sc(C(=O)Nc2ncco2)c2c1-c1sncc1CC2 :: 95
CC(=O)Nc1ccc(Oc2sc(C(N)=O)c3c2-c2sncc2CC3)c(C)n1 :: 98
N#Cc1cncc(Oc2sc(C(N)=O)c3c2-c2sncc2CC3)c1 :: 103
CNC(=O)c1ccc(Oc2sc(C(N)=O)c3c2-c2sncc2CC3)c(C)n1 :: 106
NC(=O)c1sc(Oc2ccc(C(=O)N3CCOCC3)nc2)c2c1CCc1cnsc1-2 :: 98

Turning now to a further record.
Challenge: Return Percent inhibition of CDK8 activity (%) measured with CDK8/CycC (Homo sapiens) given this molecule: NC(=O)c1sc(Oc2ccc(C(F)(F)F)cc2)c2c1CCc1cnsc1-2
Response given: 102

====

Listing: Percent inhibition of CDK8 activity (%) of selected compounds
Target system: CDK8/CycC (Homo sapiens, UniProt P49336)
Construct: purchased Carna Biosciences
Method summary: CDK8 inhibitory activity (Kinase Tracer-236 / Eu-anti-GST fluorescence assay)
Type: binding
Set-up: concentration or dose not given beside the values
Experimental parameters: test compound concentration given as '1 1.1.1\4' [sic]
Structures can show the parent of a compound that is named as a salt.
Entry rule: numbers only, all in %.

Consider the reported Percent inhibition of CDK8 activity (%) for these compounds:
CC(=O)Nc1ccc(Oc2sc(C(N)=O)c3c2-c2sncc2CC3)cn1 [Example 94] :: 90
CC(C)(O)C(=O)Nc1ccc(Oc2sc(C(N)=O)c3c2-c2sncc2CC3)cn1 [Example 22] :: 102
NC(=O)c1sc(Oc2ccc(C(=O)N3CC[C@H](O)C3)nc2)c2c1CCc1cnsc1-2 [Example 110] :: 103
CNc1ccc(Oc2sc(C(N)=O)c3c2-c2sncc2CC3)c(C)n1 [Example 27, monohydrochloride] :: 102
COC1CN(C(=O)c2ccc(Oc3sc(C(N)=O)c4c3-c3sncc3CC4)c(C)n2)C1 [Example 113] :: 108

Turning now to a further record.
Challenge: I'd like to know its Percent inhibition of CDK8 activity (%). The compound in question is Cc1nc(N)ccc1Oc1sc(C(N)=O)c2c1-c1sncc1CC2 [Example 29]
Response given: 98

====

Listing: Percent inhibition of CDK19 activity (%) of selected molecules
Target system: CDC2L6/CycC (CDK19) (Homo sapiens, UniProt Q9BWU1)
Construct: purchased Carna Biosciences Inc
Method summary: CDK19 inhibitory activity (Kinase Tracer-236 / Eu-anti-GST fluorescence assay)
Format: binding
Parameters: concentration or dose not given beside the values
Experimental parameters: test compound concentration given as '1 1.1.1\4' [sic]
Entry rule: numbers only, all in %.

Consider the reported Percent inhibition of CDK19 activity (%) for these molecules:
NC(=O)c1sc(Oc2ccc(Br)cc2)c2c1CCc1cnsc1-2 [Example 1] :: 103
CCOCCNC(=O)c1ccc(Oc2sc(C(N)=O)c3c2-c2sncc2CC3)c(C)n1 [Example 119] :: 101
NC(=O)c1sc(Oc2ccc(=O)[nH]c2)c2c1CCc1cnsc1-2 [Example 33] :: 99

Challenge: I'd like to know its Percent inhibition of CDK19 activity (%). The molecule in question is CC(=O)c1sc(Oc2cccnc2C)c2c1CCc1cnsc1-2 [Example 39]
Response given: 95

Challenge: I'd like to know its Percent inhibition of CDK19 activity (%). The molecule in question is COC1CN(C(=O)c2ccc(Oc3sc(C(N)=O)c4c3-c3sncc3CC4)cn2)C1 [Example 111]
Response given: 100
